Tested on: Curvularia lunata
Assay: Antifungal activity against Curvularia lunata assessed as reduction in fungal cell growth incubated for 48 hrs by serial dilution method
Format: functional
Active and inactive are the calls of the source. No cut-off for these calls is given here.
PROPERTY NAME: MIC

{"columns": ["MOLECULE", "EXPERIMENTAL VALUE"],
 "data": [
  ["Cc1cccc(CN2c3ccccc3C3(Cc4cccc(C)c4)CCN(S(=O)(=O)c4ccccc4)C23)c1 (stereo unspecified)", "inactive"],
  ["CCCC(=O)N1CCC2(Cc3cccc(C)c3)c3ccccc3N(Cc3cccc(C)c3)C12 (stereo unspecified)", "inactive"],
  ["Cc1cccc(CN2c3ccccc3C3(Cc4cccc(C)c4)CCN(C(=O)c4ccccc4C)C23)c1 (stereo unspecified)", "62.5 µg/mL"],
  ["Cc1cccc(CN2c3ccccc3C3(Cc4cccc(C)c4)CCN(C(=O)C(F)(F)F)C23)c1 (stereo unspecified)", "inactive"],
  ["Cc1ccccc1CN1c2ccccc2C2(Cc3ccccc3C)CCN(C(=O)C(F)(F)F)C12 (stereo unspecified)", "250 µg/mL"],
  ["CCCCC(=O)N1CCC2(Cc3cccc(C)c3)c3ccccc3N(Cc3cccc(C)c3)C12 (stereo unspecified)", "inactive"],
  ["Cc1cccc(CN2c3ccccc3C3(Cc4cccc(C)c4)CCN(C(=O)CCc4ccccc4)C23)c1 (stereo unspecified)", "inactive"],
  ["CN1c2ccccc2C2(O)CCCN(C(=O)c3ccccc3F)C12 (stereo unspecified)", "inactive"],
  ["CCCCCC(=O)N1CCC2(Cc3ccccc3C)c3ccccc3N(Cc3ccccc3C)C12 (stereo unspecified)", "125 µg/mL"],
  ["CN1c2ccccc2C2(O)CCCN(C(=O)c3ccc(F)cc3)C12 (stereo unspecified)", "125 µg/mL"],
  ["Cc1cccc(CN2c3ccccc3C3(Cc4cccc(C)c4)CCN(C(=O)COc4ccccc4)C23)c1 (stereo unspecified)", "inactive"]
]}

---

Test system: Bacillus cereus
Assay: Antibacterial activity against Bacillus cereus assessed as reduction in bacterial cell growth incubated for 24 hrs by filter paper assay
Assay type: functional
The source made the active and inactive calls. The rule behind the calls is not given here.

{"columns": ["MOLECULE", "MIC"],
 "data": [
  ["CCC(=O)N1CCCC2(O)c3ccccc3N(C)C12 (stereo not given)", "inactive"],
  ["CN1c2ccccc2C2(O)CCCN(C(=O)c3ccc(F)cc3)C12 (stereo not given)", "inactive"],
  ["Cc1ccccc1CN1c2ccccc2C2(Cc3ccccc3C)CCN(C(=O)COc3ccccc3)C12 (stereo not given)", "250 µg/mL"],
  ["Cc1ccccc1CN1c2ccccc2C2(Cc3ccccc3C)CCN(S(=O)(=O)c3ccccc3)C12 (stereo not given)", "125 µg/mL"],
  ["CCCCCCC(=O)N1CCCC2(O)c3ccccc3N(C)C12 (stereo not given)", "250 µg/mL"],
  ["Cc1cccc(CN2c3ccccc3C3(Cc4cccc(C)c4)CCN(C(=O)C(F)(F)F)C23)c1 (stereo not given)", "inactive"],
  ["CCCCC(=O)N1CCC2(Cc3ccccc3C)c3ccccc3N(Cc3ccccc3C)C12 (stereo not given)", "250 µg/mL"],
  ["CCCCCC(=O)N1CCCC2(O)c3ccccc3N(C)C12 (stereo not given)", "inactive"],
  ["Cc1cccc(CN2c3ccccc3C3(Cc4cccc(C)c4)CCN(C(=O)CCc4ccccc4)C23)c1 (stereo not given)", "inactive"],
  ["CN1c2ccccc2C2(O)CCCN(C(=O)c3ccccc3F)C12 (stereo not given)", "inactive"]
]}

# credit: ChEMBL document CHEMBL4304804
